Target: hMCHR (MCH receptor) (Homo sapiens, UniProt Q99705)
Construct: (or internally produced); host or cells: CHO (Chinese hamster ovary) cells, membrane preparation
Sequence (Q99705 whole entry): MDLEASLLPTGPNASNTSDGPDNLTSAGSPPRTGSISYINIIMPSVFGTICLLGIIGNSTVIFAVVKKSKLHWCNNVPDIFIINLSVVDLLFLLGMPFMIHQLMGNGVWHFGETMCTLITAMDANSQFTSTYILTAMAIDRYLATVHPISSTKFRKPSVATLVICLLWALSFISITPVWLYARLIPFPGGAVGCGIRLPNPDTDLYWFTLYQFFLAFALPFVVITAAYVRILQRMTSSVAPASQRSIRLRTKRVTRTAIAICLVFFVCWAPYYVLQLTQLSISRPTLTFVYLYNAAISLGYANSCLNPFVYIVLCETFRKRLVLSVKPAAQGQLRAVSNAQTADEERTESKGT
Test: MCH Assay PCOP Protocol ([125I]-MCH SPA binding to hMCHR-CHO membranes);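 further: A 0.4–50 nM B 51–500 nM C 501–2500 nM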
Conditions: [125I]-MCH binding to hMCHR-CHO membranes; class symbols for ranges of Ki; read-out: Activity (Ki range)
pKi: −log10 of the molar value.
Listing of entries alongside the reported pKi.

Below: 7 compounds and their reported pKi.
| compound | measurement_name | observed_result |
| --- | --- | --- |
| Cc1ccc(C(CCN2CCCCC2)CNC(=O)Nc2cc(C)cc(C)c2)cc1 (centres unmarked) | pKi | 5.60 to 6.30 |
| CCCN(CC)CCC(CNC(=O)Nc1cccc(C(F)(F)F)c1)c1ccc(Cl)c(Cl)c1 (centres unmarked) | pKi | 6.30 to 7.29 |
| COc1ccc(C(CCN2CCCC2)CNC(=O)Nc2cc(C(F)(F)F)cc(C(F)(F)F)c2)cc1 (centres unmarked) | pKi | 5.60 to 6.30 |
| O=S(=O)(NCC(CCN1CCC(N2CCCCC2)CC1)c1ccc(Cl)c(Cl)c1)c1ccc(Cl)c(Cl)c1 (centres unmarked) | pKi | 5.60 to 6.30 |
| O=C(NCC(CCN1CCC(N2CCCCC2)CC1)c1ccc(Cl)c(Cl)c1)Nc1ccc([N+](=O)[O-])c(Cl)c1 (centres unmarked) | pKi | 6.30 to 7.29 |
| Cc1ccc(C(CCNC2CCC2)CNC(=O)Nc2cc(C(F)(F)F)cc(C(F)(F)F)c2)cc1 (centres unmarked) | pKi | 6.30 to 7.29 |
| CN(C)CCCNCCC(CNC(=O)Nc1cc(Cl)cc(Cl)c1)c1ccc(-c2cccc(Cl)c2)cc1 (centres unmarked) | pKi | 7.30 to 9.40 |

Proceed to the following item.
Input O=C(NCC(CCNC1CCCC1)c1ccc(-c2cc(Cl)cc(Cl)c2)cc1)Nc1cc(Cl)cc(Cl)c1 (centres unmarked) . Output pKi: 6.30 to 7.29
